- Tested on: CYPIR (Rice Flatsedge)
- measurement protocol: Preemergence weed control under flooded paddy conditions
- Type: in vivo, Cyperus iria
- condition details: 0.1250 kg/ha, rated 3-4 weeks after treatment
Lab note: compare CYPIR herbicidal effect rating against 5. Equal or greater, write YES. Smaller, write NO.

Q: CYPIR herbicidal effect rating >= 5 for Cn1c(C(F)(F)F)cc(=O)n(-c2cc(N=C3SCC(=O)N3C3CCOC3=O)c(Cl)cc2F)c1=O (stereo not shown) [Compound 73] ?
A: NO

Q: CYPIR herbicidal effect rating >= 5 for CN1C(=O)C(CC(=O)NS(C)(=O)=O)SC1=Nc1cc(-n2c(=O)cc(C(F)(F)F)n(C)c2=O)c(F)cc1Cl (stereo not shown) [Compound 97] ?
A: NO

Q: CYPIR herbicidal effect rating >= 5 for COC(=O)[C@H](Cc1ccc([N+](=O)[O-])cc1)N1C(=O)CSC1=Nc1cc(-n2c(=O)cc(C(F)(F)F)n(C)c2=O)c(F)cc1Cl [Compound 78] ?
A: YES

Q: CYPIR herbicidal effect rating >= 5 for CCOC(=O)CN1C(=O)C(CC(=O)OCCF)SC1=Nc1cc(-n2c(=O)cc(C(F)(F)F)n(C)c2=O)c(F)cc1Cl (stereo not shown) [Compound 82] ?
A: NO

Q: CYPIR herbicidal effect rating >= 5 for CCOC(=O)CN1C(=O)C(Cc2ccccc2OC(C)C(=O)O)S/C1=N/c1cc(-n2c(=O)cc(C(F)(F)F)n(C)c2=O)c(F)cc1Cl (stereo not shown) [Compound 114] ?
A: YES

Q: CYPIR herbicidal effect rating >= 5 for CCOC(=O)CN1C(=O)C(CC(=O)OC(C)C)SC1=Nc1cc(-n2c(=O)cc(C(F)(F)F)n(C)c2=O)c(F)cc1Cl (stereo not shown) [Compound 60] ?
A: YES

====

- Test system: ECHCG (Barnyardgrass)
- measurement protocol: Preemergence herbicidal evaluation
- Format: in vivo, Echinochloa crus-galli
- condition details: rate 0.1250 kg/ha; rated 4-5 weeks after treatment
Would you kindly list ECHCG preemergence herbicidal rating for each of these molecules?

Q: Value lookup for ECHCG preemergence herbicidal rating; key = CCOC(=O)CN1C(=O)C(=C2CCCC2)SC1=Nc1cc(-n2c(=O)cc(C(F)(F)F)n(C)c2=O)c(F)cc1Cl
A: 0.0

Q: Value lookup for ECHCG preemergence herbicidal rating; key = CCC1SC(=Nc2cc(-n3c(=O)cc(C(F)(F)F)n(C)c3=O)c(F)cc2Cl)N(C)C1=O (stereo not drawn)
A: 9.0

Q: Value lookup for ECHCG preemergence herbicidal rating; key = COC(=O)CN1C(=O)CSC1=Nc1cc(-n2c(=O)cc(C(F)(F)F)n(C)c2=O)c(F)cc1Cl
A: 0.7

Q: Value lookup for ECHCG preemergence herbicidal rating; key = CC1SC(=Nc2cc(N3C(=O)C4=C(CCCC4)C3=O)c(F)cc2Cl)N(C)C1=O (stereo not drawn)
A: 0.0

Q: Value lookup for ECHCG preemergence herbicidal rating; key = O=C1CSC(=Nc2cc(N3C(=O)C4=C(CCCC4)C3=O)c(F)cc2Cl)N1c1ccccc1
A: 2.0

Q: Value lookup for ECHCG preemergence herbicidal rating; key = CN1C(=O)C(F)SC1=Nc1cc(N2C(=O)C3=C(CCCC3)C2=O)c(F)cc1Cl (stereo not drawn)
A: 2.0

====

- System: SAGPY (Arrowhead (Pygmaea))
- measurement protocol: Preemergence weed control under flooded paddy conditions
- Assay type: in vivo, Sagittaria pygmaea
- condition details: 0.1250 kg/ha, rated 3-4 weeks after treatment
Would you kindly list SAGPY herbicidal effect rating for each of these compounds?
The response must contain the number and no unit.

Q: Value lookup for SAGPY herbicidal effect rating; key = CN1C(=O)C(CC(N)=O)SC1=Nc1cc(-n2c(=O)cc(C(F)(F)F)n(C)c2=O)c(F)cc1Cl (stereo not drawn)
A: 4.0

Q: Value lookup for SAGPY herbicidal effect rating; key = CCOC(=O)CN1C(=O)C(CC(=O)O)SC1=Nc1cc(-n2nc(C)n(C(F)F)c2=O)c(F)cc1Cl (stereo not drawn)
A: 7.0

Q: Value lookup for SAGPY herbicidal effect rating; key = CCOC(=O)[C@H](C)N1C(=O)CSC1=Nc1cc(-n2c(=O)cc(C(F)(F)F)n(C)c2=O)c(F)cc1Cl
A: 4.0

Q: Value lookup for SAGPY herbicidal effect rating; key = CCOC(=O)CN1C(=O)C(CC(=O)OC(C)C)SC1=Nc1cc(-n2c(=O)cc(C(F)(F)F)n(C)c2=O)c(F)cc1Cl (stereo not drawn)
A: 9.0

Q: Value lookup for SAGPY herbicidal effect rating; key = C=CCN1C(=O)C(CC(=O)OC(C)C)SC1=Nc1cc(-n2c(=O)cc(C(F)(F)F)n(C)c2=O)c(F)cc1Cl (stereo not drawn)
A: 4.0

Q: Value lookup for SAGPY herbicidal effect rating; key = Cn1c(C(F)(F)F)cc(=O)n(-c2cc(N=C3SCC(=O)N3CC(=O)OCC#N)c(Cl)cc2F)c1=O
A: 9.0

Q: Value lookup for SAGPY herbicidal effect rating; key = COC(=O)[C@H](Cc1ccccc1)N1C(=O)CS/C1=N/c1cc(-n2c(=O)cc(C(F)(F)F)n(C)c2=O)c(F)cc1Cl
A: 4.0

Q: Value lookup for SAGPY herbicidal effect rating; key = C=CCN1C(=O)C(CC(=O)O)SC1=Nc1cc(-n2c(=O)cc(C(F)(F)F)n(C)c2=O)c(F)cc1Cl (stereo not drawn)
A: 3.0

Q: Value lookup for SAGPY herbicidal effect rating; key = C=CCN1C(=O)C(CC(=O)NOC)SC1=Nc1cc(-n2c(=O)cc(C(F)(F)F)n(C)c2=O)c(F)cc1Cl (stereo not drawn)
A: 9.0

====

- System: SETVI (Foxtail, Green)
- measurement protocol: Preemergence herbicidal evaluation
- Type: in vivo, Setaria viridis
- condition details: rate 0.0313 kg/ha; rated 4-5 weeks after treatment
readout name: Preemergence herbicidal rating SETVI
The response must contain the number and no unit.

Q: Value lookup for Preemergence herbicidal rating SETVI; key = CCOC(=O)CN1C(=O)C(CC(=O)O)SC1=Nc1cc(-n2nc(C)n(C(F)F)c2=O)c(F)cc1Cl (centres unmarked)
A: 1.0

Q: Value lookup for Preemergence herbicidal rating SETVI; key = C=CCN1C(=O)C(CC(=O)OC(C)C)SC1=Nc1cc(-n2c(=O)cc(C(F)(F)F)n(C)c2=O)c(F)cc1Cl (centres unmarked)
A: 0.5

Q: Value lookup for Preemergence herbicidal rating SETVI; key = CCOC(=O)CN1C(=O)C(CC(=O)OCc2ccccc2)OC1=Nc1cc(-n2c(=O)cc(C(F)(F)F)n(C)c2=O)c(F)cc1Cl (centres unmarked)
A: 0.0

Q: Value lookup for Preemergence herbicidal rating SETVI; key = COC(=O)[C@H](Cc1ccccc1)N1C(=O)CS/C1=N/c1cc(-n2c(=O)cc(C(F)(F)F)n(C)c2=O)c(F)cc1Cl
A: 0.0

Q: Value lookup for Preemergence herbicidal rating SETVI; key = Cn1c(C(F)(F)F)cc(=O)n(-c2cc(N=C3SCC(=O)N3CC(=O)OCC3CC3)c(Cl)cc2F)c1=O
A: 0.0

Q: Value lookup for Preemergence herbicidal rating SETVI; key = CCOC(=O)CN1C(=O)C(Cc2ccccc2OC(C)C(=O)O)S/C1=N/c1cc(-n2c(=O)cc(C(F)(F)F)n(C)c2=O)c(F)cc1Cl (centres unmarked)
A: 0.0

Q: Value lookup for Preemergence herbicidal rating SETVI; key = C=CCN1C(=O)CSC1=Nc1cc(-n2c(=O)cc(C(F)(F)F)n(C)c2=O)c(F)cc1Cl
A: 9.0

Q: Value lookup for Preemergence herbicidal rating SETVI; key = C=CCN1C(=O)C(CC(=O)O)SC1=Nc1cc(-n2c(=O)cc(C(F)(F)F)n(C)c2=O)c(F)cc1Cl (centres unmarked)
A: 0.0

Q: Value lookup for Preemergence herbicidal rating SETVI; key = Cn1c(C(F)(F)F)cc(=O)n(-c2cc(N=C3SCC(=O)N3[C@@H](Cc3ccccc3)C(=O)O)c(Cl)cc2F)c1=O
A: 1.0

Q: Value lookup for Preemergence herbicidal rating SETVI; key = COCCOC(=O)CN1C(=O)CSC1=Nc1cc(-n2c(=O)cc(C(F)(F)F)n(C)c2=O)c(F)cc1Cl
A: 0.0

Q: Value lookup for Preemergence herbicidal rating SETVI; key = CCOC(=O)CN1C(=O)C[S+]([O-])/C1=N/c1cc(-n2c(=O)cc(C(F)(F)F)n(C)c2=O)c(F)cc1Cl (centres unmarked)
A: 0.0

Q: Value lookup for Preemergence herbicidal rating SETVI; key = Cn1c(C(F)(F)F)cc(=O)n(-c2cc(N=C3SCC(=O)N3CCC(=O)O)c(Cl)cc2F)c1=O
A: 0.0

Q: Value lookup for Preemergence herbicidal rating SETVI; key = CCOC(=O)C(c1ccc(Cl)cc1)N1C(=O)CSC1=Nc1cc(-n2c(=O)cc(C(F)(F)F)n(C)c2=O)c(F)cc1Cl (racemic)
A: 1.0

Q: Value lookup for Preemergence herbicidal rating SETVI; key = Cn1c(C(F)(F)F)cc(=O)n(-c2cc(N=C3SCC(=O)N3Cc3ccco3)c(Cl)cc2F)c1=O
A: 0.0
